biological target: HRgpA-6H (Porphyromonas gingivalis) (UniProt P28784); experiment: ELISA, coated HRgpA-6H
Readout kind: OD450 nm
Write the number on its own, no unit after it.

Prompt line: Fill blank: measured OD450 nm of the binder KB001 mouse Fab VH H35V (Fab, V domains shown) VH: EVQLKQSGPGLVAPSQSLSITCTVSGFSLSIYSVVWVRQPPGKGLEWLGMIWGGGSSDYNSALKSRLSISKDNSKSQVFLKMNSLQTDDTAMYYCARNGNFYAMDYWGQGTSVTVSS VL: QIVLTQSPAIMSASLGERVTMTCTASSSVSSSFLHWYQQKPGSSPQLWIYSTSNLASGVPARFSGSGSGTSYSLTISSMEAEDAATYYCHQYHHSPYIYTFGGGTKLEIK is ____.
Response line: 0.706

Prompt line: Also KB001 mouse Fab VL S57T (Fab, V domains shown) VH: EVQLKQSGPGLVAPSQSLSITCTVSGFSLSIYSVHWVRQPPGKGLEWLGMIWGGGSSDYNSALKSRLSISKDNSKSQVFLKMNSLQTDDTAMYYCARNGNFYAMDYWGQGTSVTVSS VL: QIVLTQSPAIMSASLGERVTMTCTASSSVSSSFLHWYQQKPGSSPQLWIYSTSNLATGVPARFSGSGSGTSYSLTISSMEAEDAATYYCHQYHHSPYIYTFGGGTKLEIK ?
Response line: 0.843

Prompt line: Also KB001 mouse Fab VH A62L (Fab, V domains shown) VH: EVQLKQSGPGLVAPSQSLSITCTVSGFSLSIYSVHWVRQPPGKGLEWLGMIWGGGSSDYNSLLKSRLSISKDNSKSQVFLKMNSLQTDDTAMYYCARNGNFYAMDYWGQGTSVTVSS VL: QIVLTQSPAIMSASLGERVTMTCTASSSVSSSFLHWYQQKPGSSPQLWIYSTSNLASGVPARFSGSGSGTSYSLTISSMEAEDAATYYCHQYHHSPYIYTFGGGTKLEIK ?
Response line: 0.812
